// reported CC50 per item
system: SF-295; experiment: Growth inhibition of human SF295 cells; assay type: functional; conditions: read-out: LC50 (the source's name)

| Chem Smiles | System Tested | CC50 |
| --- | --- | --- |
| CC1=NN(c2cccc(Cl)c2)C(=O)/C1=C\c1c(O)ccc2ccccc12 | SF-295 | > 100 µM |
| O=C1/C(=C\c2coc3ccccc3c2=O)c2ccccc2N1c1c(Cl)cccc1Cl | SF-295 | > 100 µM |
| CC1=NN(c2cccc(Cl)c2)C(=O)/C1=C\C=C\c1ccccc1 | SF-295 | > 100 µM |

* * *

system: SF-295; test: Growth inhibition of human SF295 cells assessed tumor cell growth at 10^-5 M; format: functional; design: scale not given: the % may be the effect or the level left
Decision: Activity beneath 90% gives class 1; Activity meeting or exceeding 90% gives class 0.

| Chem Smiles | Discrete Label |
| --- | --- |
| O=C1Nc2ccccc2/C1=C/c1cn(C(=O)c2c(Cl)cccc2Cl)c2ccccc12 | class 1 |
| CC1=NN(c2cccc(Cl)c2)C(=O)/C1=C\c1cn(S(=O)(=O)c2ccc(C)cc2)c2ccccc12 | class 0 |
| CC1=NN(c2cccc(Cl)c2)C(=O)/C1=C\c1cn(Cc2ccccc2)c2ccccc12 | class 1 |
| CC1=NN(c2cccc(Cl)c2)C(=O)/C1=C\c1c(O)ccc2ccccc12 | class 1 |
| O=C1/C(=C\c2coc3ccccc3c2=O)c2ccccc2N1c1c(Cl)cccc1Cl | class 1 |
